meta.source: paper PMC10484670

Target: T1, eIF4E (wheat, UniProt P29557 1-215)
T1 sequence: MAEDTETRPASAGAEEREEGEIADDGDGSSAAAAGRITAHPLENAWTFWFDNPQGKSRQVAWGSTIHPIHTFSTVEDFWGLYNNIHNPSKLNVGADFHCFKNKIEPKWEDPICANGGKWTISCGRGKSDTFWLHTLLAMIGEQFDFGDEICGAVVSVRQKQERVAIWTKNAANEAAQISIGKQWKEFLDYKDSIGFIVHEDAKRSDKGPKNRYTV
Assay: EMSA
parameter: binding result

PEMV2 U24C (structured_RNA) RNA: GGUAGAACACGUGGGAUAGGGGACGACCUUGUCGACCGGUUAUCGGUCCCCUGCUCCUUCGAGCUGGCAAGGCGCUCACAGGUUCUAC ... no binding
PEMV2 G21A (structured_RNA) RNA: GGUAGAACACGUGGGAUAGGAGAUGACCUUGUCGACCGGUUAUCGGUCCCCUGCUCCUUCGAGCUGGCAAGGCGCUCACAGGUUCUAC ... no binding
PEMV2 C49U:G19A (structured_RNA) RNA: GGUAGAACACGUGGGAUAAGGGAUGACCUUGUCGACCGGUUAUCGGUCUCCUGCUCCUUCGAGCUGGCAAGGCGCUCACAGGUUCUAC ... no binding
